Source: patent EP2241555A1

Assay: PAMPA (Parallel Artificial Membrane Permeability Assay)
Type: in vitro ADME
Conditions: start concentration 250 µM, diffusion period 16 h
Procedure: The permeation characteristics of the Rac1 inhibitors were determined first in the artificial system PAMPA (Parallel Artificial Membrane Permeability Assay) which uses a membrane covered with a lipid to simulate the lipid bilayer of various cell types, including intestinal epithelium and second in vitro across Caco2, a human colon carcinoma cell line seeded as monolayers onto polycarbonate membranes. […]

# molecule, PAMPA classification
data = [
    ("COC(=O)C(CC(C)C)Nc1cc(C)nc(Nc2ccc3ncccc3c2)n1 (stereo not drawn)", "high (high (flux >70%))"),
    ("CCN(CC)CCCC(C)Nc1nccc(Nc2ccc3[nH]c(C)cc3c2)n1 (stereo not drawn)", "low (low (flux <20%))"),
    ("CCN(CC)CCCC(C)Nc1nc(C)cc(Nc2ccc3nc(C)cc(N)c3c2)n1 (racemic) [NSC23766, reference compound]", "low (low (flux <20%))"),
    ("c1cc(NCc2ccc3[nH]ccc3c2)nc(NCc2ccc3[nH]ccc3c2)n1", "high (high (flux >70%))"),
    ("CCN(CC)CCCC(C)Nc1nccc(Nc2ccc3[nH]ccc3c2)n1 (stereo not drawn)", "low (low (flux <20%))"),
]
